tested-on: T1, human CLL1 ECD-His (human CLL1 extracellular domain with His tag) (human, UniProt Q5QGZ9 65-265)
T1 construct: also called antigen human CLL1 ECD-His; antigen CLL1; not shown: His tag
T1 sequence: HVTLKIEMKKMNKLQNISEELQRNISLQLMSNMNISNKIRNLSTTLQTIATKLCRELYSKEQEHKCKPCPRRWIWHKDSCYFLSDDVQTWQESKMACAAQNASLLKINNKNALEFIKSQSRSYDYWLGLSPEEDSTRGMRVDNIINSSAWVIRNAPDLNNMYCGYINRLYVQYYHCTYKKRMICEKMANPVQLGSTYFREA
protocol-details: BLI (ForteBio), antibody on AHC sensor, 60 nM human CLL1 ECD-His, 1:1 model
Experimental: In short, 4 μg/mL antibody was loaded on the anti-human IgG capture (AHC) biosensor, the sensor was equilibrated offline for 30 min in the assay buffer, and the online monitoring was used for 60 s to establish the baseline; the antibody-loaded sensor was incubated with the 60 nM antigen human CLL1 ECD-His for 3 min, then transferred to the assay buffer, and the dissociation rate was measured after 3 min; the kinetic analysis was performed using a 1:1 binding model.
quantity-kind: Response

humanized antibody hz27H4H1L2 (antibody, V domains shown, Heavy chain variable region hz27H4H1 with light chain variable region hz27H4L2; also called h27H4H1L2 (complete antibody)) VH: EVQLVQSGAEVKKPGASVKVSCKASGYTFTGYHMHWVRQAPGQRLEWMGRINPYNGAASHNQKFKDRVTITRDTSASTAYMELSSLRSEDTAVYYCARGWDYDGGYYAMDYWGQGTLVTVSS VL: DIVMTQSPLSLPVTPGEPASISCKSSQSLLYSDNQKNYLAWYLQKPGQSPQLLIYWASTRESGVPDRFSGSGSGTDFTLKISRVEAEDVGVYYCQQYYTYPYTFGQGTKLEIK : 0.726
humanized antibody hz27H4H1L1 (antibody, V domains shown, Heavy chain variable region hz27H4H1 with light chain variable region hz27H4L1; also called h27H4H1L1 (complete antibody)) VH: EVQLVQSGAEVKKPGASVKVSCKASGYTFTGYHMHWVRQAPGQRLEWMGRINPYNGAASHNQKFKDRVTITRDTSASTAYMELSSLRSEDTAVYYCARGWDYDGGYYAMDYWGQGTLVTVSS VL: DIQMTQSPSSLSASVGDRVTITCKSSQSLLYSDNQKNYLAWYQQKPGKAPKLLIYWASTRESGVPSRFSGSGSGTDFTLTISSLQPEDFATYYCQQYYTYPYTFGQGTKLEIK : 0.612
anti-human CLL-1 control antibody 1075.7 (antibody, it was captured by anti-human IgG sensors and detected with anti-human IgG-Fc, so a human Fc was present; also called ch1075.7) scFv: ENVLTQSPAIMSASPGEKVTMTCRASSNVISSYVHWYQQRSGASPKLWIYSTSNLASGVPARFSGSGSGTSYSLTISSVEAEDAATYYCQQYSGYPLTFGAGTKLELGGGGSGGGGSGGGGSDIQLQESGPGLVKPSQSLSLTCSVTGYSITSAYYWNWIRQFPGNKLEWMGYISYDGRNNYNPSLKNRISITRDTSKNQFFLKLNSVTTEDTATYYCAKEGDYDVGNYYAMDYWGQGTSVTVSS : 0.219

Now for a further binder.
Challenge: Provide Response value for the following binder: chimeric antibody ch27H4 (antibody, V domains shown, also called parent antibody) VH: EVQLQQSGPELVKPGASVKISCKASGYSFTGYHMHWVKQSHVKSLEWIGRINPYNGAASHNQKFKDKATLTVDKSSSTAYMELHSLTSEDSAVYYCARGWDYDGGYYAMDYWGQGTSVTVSS VL: DIVMSQSPSSLAVSVGEKVTMSCKSSQSLLYSDNQKNYLAWYQQKPGQSPKLLIYWASTRESGVPDRFTGSGSGTDFTLTISSVKAEDLAVYYCQQYYTYPYTFGGGTKLEIK
Response given: 0.597

Origin of measurements: patent US20220396626A1
